- systemName: T1, extracellular domain (ECD) of human CD47 (19aa-139aa) with C-terminal 6xHis tag (human, UniProt Q08722 19-139)
- T1 construct: also called recombinant CD47; recombinant human CD47
- T1 sequence (Q08722 other isoform, or with tags, fused parts or gaps limits assumed): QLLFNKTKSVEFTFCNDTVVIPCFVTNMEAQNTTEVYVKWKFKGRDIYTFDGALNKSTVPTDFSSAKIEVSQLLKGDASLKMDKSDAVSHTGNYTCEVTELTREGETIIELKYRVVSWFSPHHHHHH
- procedureDetails: ELISA, coated recombinant CD47; EC50 as grade, legend the 6th table, row 26
What EC50 was measured for each of the following?

Field: example entries. Status: answers known.
**Query** Which EC50 is listed for R.13A2 (antibody, human IgG1, kappa, V domains shown, Chimeric: rabbit variable domains, human IgG1 and human kappa constant regions) VH: QSLEESGGDLVKPGASLTVTCTASGFSFSSYYYVCWVRQAPGKGLEWIACIYAGSSGDTYYASWAKGRFTISKTSSTTVTLQMTSLTAADTATYFCARGYTGYSYQFNFWGPGTLVTVSS VL: DVVMTQTPASVEAAVGGTVTIKCQASQSISNELSWYQQKPGQPPKLLIYRASTLESGVPSRFKGSGSGTEFTLTISDLESADAATYYCQCTYITYGNAFGGGTEVVVKR ?
**Result** > 0.5 nM

**Query** Which EC50 is listed for R.19H7 (antibody, human IgG1, kappa, V domains shown, Chimeric: rabbit variable domains, human IgG1 and human kappa constant regions) VH: QEQLKESGGGLVTPGGTLTLTCTASGFTISSYHMCWVRQAPGKGLEWIGCIYPNNDFTWYATWAKGRFTISKTSSTTVDLRMTTPTTEETATYFCARASGNAYNLLDLWGQGTLVTVSS VL: AIVMTQTPASVSVAVGGSVTINCQSSESVYRDNCLGWFQQKPGQPPKLLIYRASTLASGVPSRFKGSGSGTQFTLTISDVVSDDAATYYCAGYKSTITDGTAFGGGTEVVVKR ?
**Result** 0.1 to 0.5 nM

**Query** Which EC50 is listed for R.9B11 (antibody, human IgG1, kappa, V domains shown, Chimeric: rabbit variable domains, human IgG1 and human kappa constant regions) VH: QEQLEESGGDLVKPEGSLTLTCTASGFSFSSYWMAWVRQAPGKGLEWIACIYIGSGSGTTYYASWAKGRFTISKTSSTTVTLQMTSLTAADTAIYFCARWAGSDGHFTLWGPGTLVTVSL VL: ALVMTQTPASVEAAVGGTVTINCQASQSINNLLAWYQQKPGQRPKLLIYDASDLASGVSSRFKGSGSGTEYTLTISGVQSADAATYYCQGYFYGSSVDLVFGGGTEVVVKR ?
**Result** 0.01 to 0.1 nM

**Query** Which EC50 is listed for R.1B11 (antibody, human IgG1, kappa, V domains shown, Chimeric: rabbit variable domains, human IgG1 and human kappa constant regions) VH: QSLEESGGRLVTPGTPLTLTCTASGFSLNSYHMSWVRQAPGEGLEWIGIIYADTGNADYASWTKGRFTISKASTTVELRITSPTSEDTATYFCARGPTNTYPTYFALWGPGTLVTVSS VL: AFELTQTPSSVEAAVGGTVTIKCQASQSITTYLAWYQQKPGQPPKLLIYGASNLESGVPSRFKGSRSGTEYTLTISDLESADAATYYCQSYYAISKSAFGGGTEVVVKR ?
**Result** 0.01 to 0.1 nM

Okay, here is my list. What is EC50 for each of these?
1. R.18B9 (antibody, human IgG1, kappa, V domains shown, Chimeric: rabbit variable domains, human IgG1 and human kappa constant regions; also called Chimeric antibody 18B9) VH: QSLEESGGDLVKPGASLTLTCKASGFSFNSGYMCWVRQAPGKGLEWIACIYAGSSGKTYYASWATGRFTISKTSSTTVTLQMTSLTVADTATYFCARDDGGTYYTDYLYLWGPGTLVTVSS VL: DVVMTQTPASVEAAVGGTVTIKCQASEGISSYLSWYQQKPGQPPKLLIYKASTLTSGVPSRFKGSGSGTDFTLTISDLESADAATYYCQCTYGSSGSSGYGAAFGGGTEVVVKR
2. M.69H1H9 (antibody, human IgG1, kappa, V domains shown, Chimeric: mouse variable domains, human IgG1 and human kappa constant regions) VH: EVQLQQSGPELVKPGASVKMSCKTSGYTFTEYTIHWVKQSHEKSLEWIGSINPNNGLFRYNQKFKGKATLTVDKSSSTAYMELRSLTSEDSAVYYCARDYGFGYSDYWGQGTTLTVSS VL: DIQMIQSPSSMFASLGDRVSLSCRASQGIRGNLDWYQQKPGGTIKLLIYSTSNLNSGVPSRFSGSGSGSDYSLTISSLESEDFADYYCLQRNAFPWTFGGGTKLEIKR

**Result**
0.01 to 0.1 nM
0.01 to 0.1 nM

Okay, here is my list. What is EC50 for each of these?
1. R.14G4 (antibody, human IgG1, kappa, V domains shown, Chimeric: rabbit variable domains, human IgG1 and human kappa constant regions) VH: QEQLKESGGGLVTPGGTLTLTCTASGFTITSYHMCWVRQAPGKGLEWIGCIYPNNGFTWYASWAKGRFTISKTSSTTVDLKMTSPTTEEMATYFCARGSGNSYNQLDLWGQGTLVTVSS VL: AIVMTQTPASVSATLGGSVTINCQSSESVYRDNCLGWFQQKPGQPPKLLIYKASTLASGVPSRFKGSGSGTQFTLTISDVVSDDAATYYCAGYKSTITDGTAFGGGTEVVVKR
2. R.15G10 (antibody, human IgG1, kappa, V domains shown, Chimeric: rabbit variable domains, human IgG1 and human kappa constant regions) VH: QSLEESGGRLVTPGTPLTLTCTASGFTISSYHMNWVRQAPGEGLEWIGIIYVGSGNADYASWAKGRFTISKASTTVDLKITSPTTEDTATYFCARGPTNTYPTYFNLWGPGTLVTVSS VL: AFELTQTPSSVEAAVGGTVTIKCQASRSITSYLAWYQHKPGQPPTLLIYAASNVASGVSSRFKGSRSGTEYTLTISDLESADAATYYCQSYYAISTNTFGGGTEVVVKR

**Result**
1: > 0.5 nM; 2: 0.01 to 0.1 nM

Okay, here is my list. What is EC50 for each of these?
1. M.20B10E9 (antibody, human IgG1, kappa, V domains shown, Chimeric: mouse variable domains, human IgG1 and human kappa constant regions) VH: EVQLQQSGAELVRPGASVKLSCTASGFNIEDTYMHWVKQRPEQGLEWIGRIDPANGKTKSDPKFQGKATITTDTSSNTAYLQLSSLTSEDTAVYYCAKGDGYYVGGLDYWGQGTTLTVSS VL: DIQMNQSPSSLSASLGDTITITCHASQNIHVWLSWYQQKPGNIPKLLIYKASNLHTGVPSRFSGSGSGTGFTLTISSLQPEDIATYYCQQGQSYPYTFGGGTKLEIKR
2. M.95D4A11 (antibody, human IgG1, kappa, V domains shown, Chimeric: mouse variable domains, human IgG1 and human kappa constant regions) VH: QVQLQQPGAELVRPGASVKLSCKASGYTFTSYWMNWVKQRPEQGLEWIGSIDPYDSETHYNQKFKDKAILTVDKSSSTAYMQLSSLTSEDSAVYYCARGRGYAMDYWGQGTSVTVSS VL: DIQMTQSPASLSASVGETVTITCRASGNIHNYLAWYQQKQGKSPQLLVYNAKTLADGVPSRFSGSGSGTQYSLKINSLQPEDFGSYYCQHFWSTPPTFGGGTKLEIKR

**Result**
0.01 to 0.1 nM
0.01 to 0.1 nM
